molecular target: T1, HLA-A*0201 molecule on human T2 cells (human); assay: T2 cells expressing HLA-A*0201, anti-HLA-A2-PE, FACS
T1 construct: read out with anti-HLA-A2 antibody BB7.2-PE; also called HLA-A2
Known mean relative fluorescence intensity at 1.5625 µM peptide of a selection of binders

Recorded results for 4 binders are shown here.
- SMEELLWFV [TYMS-B]: 15.9 % of HIV peptide
- RVSSYLVPI (Fragment of human FOXM1) [FOXM1-H]: 0 % of HIV peptide
- WLPFGFILI (Fragment of human IL13RA2) [IL13RA2-H]: 3 % of HIV peptide
- VLEELLWFI (Fragment of human TYMS) [TYMS-H]: 8.6 % of HIV peptide

Ask | // query mean relative fluorescence intensity at 1.5625 µM peptide value for entry AVFRVLIPV [EZH2-B2]
Reply | 0 % of HIV peptide

Ask | // query mean relative fluorescence intensity at 1.5625 µM peptide value for entry LLLSAALSA (Fragment of human CHI3L1) [CHI3L1H]
Reply | -1.9 % of HIV peptide

Ask | // query mean relative fluorescence intensity at 1.5625 µM peptide value for entry LMDLSTTEV [FOXM1-B2]
Reply | 7.2 % of HIV peptide

Ask | // query mean relative fluorescence intensity at 1.5625 µM peptide value for entry LLLSAALSV [CHI3L1B]
Reply | 13.5 % of HIV peptide
